All figures here come from patent US20240301062A1.

target entity: T1, human claudin 6 (CLDN6) (human, UniProt P56747 1-220)
T1 construct: also called human CLDN6; hCLDN6
T1 sequence: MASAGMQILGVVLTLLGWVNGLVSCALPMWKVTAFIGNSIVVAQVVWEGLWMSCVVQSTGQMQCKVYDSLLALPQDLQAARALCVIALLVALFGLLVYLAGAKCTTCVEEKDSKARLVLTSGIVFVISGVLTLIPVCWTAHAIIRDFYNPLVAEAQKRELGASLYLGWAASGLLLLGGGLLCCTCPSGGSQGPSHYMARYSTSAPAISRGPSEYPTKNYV
protocol description: FACS, HEK293T/human CLDN6 cells

| binder | EC50 |
| --- | --- |
| BG87P-Bz4 (antibody, V domains shown) VH: QIQLVQSGAEVKKPGASVKVSCKASGYSFTDYHINWVRQAPGQRLEWMGWIYPGSGYTKYNEKFKVRVTLTRDTSASTAYMELSSLRSEDTAVYFCARSGIYHYVSSYYFDHWGKGTTVTVSS VL: DIQMTQSPSTLSASVGDRVTITCKASQDVGTAVAWYQQKPGKSPKLLIYWASTRHTGVPSRFSGSGSGTEFTLTISSVQPDDFATYFCQQYSSYTFGGGTKVEIK | 1.88 nM |
| BG87P-Bz7 (antibody, V domains shown) VH: QIQLVQSGAEVKKPGASVKVSCKASGYSFTDYHINWVRQAPGQRLEWMGWIYPGSGYTKYNEKFKVRVTLTVDTSASTAYMELSSLRSEDTAVYFCARSGIYHYVSSYYFDHWGKGTTVTVSS VL: DIQMTQSPSTLSASVGDRVTITCKASQDVGTAVAWYQQKPGKSPKLLIYWASTRHTGVPSRFSGSGSGTEFTLTISSLQPDDFATYFCQQYSSYTFGGGTKVEIK | 2.54 nM |
